Ref: patent US6864068B2

tested on: F culmorum; assay: Specific antifungal activity of Rs-AFP2 isoforms in SMF− and SMF+ media; assay type: cell-based; details: 1/IC50 of mutant divided by that of yRs-AFP2 x 100; 48 hour incubation; low ionic strength medium; preliminary tests
Decide using RELATIVE SPECIFIC ACTIVITY (%) IN MEDIUM SMF−: a value greater than or equal to 30% is YES, a smaller one is NO.

• yRs-AFP2/S12R (QKLCQRPSGTWRGVCGNNNACKNQCIRLEKARHGSCNYVFPAHKCICYFPC; listed as Raphanus sativus) = YES
• yRs-AFP2/P7-: yeast-expressed Rs-AFP2 isoform with proline deletion at position 7 (QKLCQRSGTWSGVCGNNNACKNQCIRLEKARHGSCNYVFPAHKCICYFPC; listed as Raphanus sativus) = NO
• yRs-AFP2/G9R: yeast-expressed Rs-AFP2 isoform, position 9 glycine to arginine (QKLCQRPSRTWSGVCGNNNACKNQCIRLEKARHGSCNYVFPAHKCICYFPC; listed as Raphanus sativus) = YES
• yRs-AFP2/I46R (QKLCQRPSGTWSGVCGNNNACKNQCIRLEKARHGSCNYVFPAHKCRCYFPC; listed as Raphanus sativus) = NO
• yRs-AFP2/V39R: yeast-expressed Rs-AFP2 isoform, position 39 valine to arginine (QKLCQRPSGTWSGVCGNNNACKNQCIRLEKARHGSCNYRFPAHKCICYFPC; listed as Raphanus sativus) = YES
• yRs-AFP2/Q5M: yeast-expressed Rs-AFP2 isoform, position 5 glutamine to methionine (QKLCMRPSGTWSGVCGNNNACKNQCIRLEKARHGSCNYVFPAHKCICYFPC; listed as Raphanus sativus) = YES
• yRs-AFP2/I26R (QKLCQRPSGTWSGVCGNNNACKNQCRRLEKARHGSCNYVFPAHKCICYFPC; listed as Raphanus sativus) = YES
• yRs-AFP2/A42R (QKLCQRPSGTWSGVCGNNNACKNQCIRLEKARHGSCNYVFPRHKCICYFPC; listed as Raphanus sativus) = YES
